Target: dog IgG Fab fragment
Assay: ELISA, coated antigen, E. coli supernatant
quantity_name: absorbance at 450 nm (A450)
// units = A450; emit number, no label

binder="SVG18 (VHH, not shown: large carriers) VHH: QVQLQQSGGGLVQPGGSLRLSCAASGFTFSSYAMSWVRQAPGKGLEWVSAINSGGDIISYADSVKGRFTISRDNAKNTLYLQMNSLKPEDTAVYYCAKSPIVRTYGGYDYWGQGTQVTVSS" quantity_name="absorbance at 450 nm" result_units=A450 value_observed=1.36

Problem: Which value of absorbance at 450 nm has been reported for SVG24 (VHH, not shown: large carriers) VHH: QVQLQQSGGGLVQAGGSLRLSCAASGRTFSTYNIAWFRQAPGKEREFVTAITWGSGNTYYADSVKGRFTISRDNAKNTVFLQMNSLKPDDTAVYYCAARRSLGPTMAFAYEYWGQGTQVTVSS in the records?
Result: 0.074
